System: 292921-168-R-J2-PDC KRAS tumor spheroid viability;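 further: drug exposure lasted seven days after spheroids formed for three days; percent of DMSO vehicle control viability which is 100%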
Test: Anticancer human tumor 292921-168-R-J2-PDC patient-derived pancreatic carcinoma cell line growth inhibition [KRAS2]
Settings: second compound 1 µM; first compound 0.1 µM; active compounds read low; spheroids with HUVEC and MSC
Excerpt: Multicellular complex tumor spheroid response to RAS pathway inhibitors in combination with a targeted agents in patient-derived cell lines with oncogenic KRAS variants from multiple cancer types A high-throughput screen of multi-cell type tumor spheroids was designed to identify active combinations of targeted small molecules and KRAS pathway inhibitors. […] Compounds. […] If the clinical Cmax for an agent had not been determined, the highest concentration tested was 10 microM. […]
outcome measure: viability, T/C (%)
Express it in %; write the number only.

# compound, viability, T/C (%)
records = [
    ("CC(=O)OC12COC1CC(O)C1(C)C(=O)C(O)C3=C(C)C(OC(=O)C(O)C(NC(=O)OC(C)(C)C)c4ccccc4)CC(O)(C(OC(=O)c4ccccc4)C21)C3(C)C (stereo not given) + COc1cc2nc(C)nc(NC(C)c3cc(N)cc(C(F)(F)F)c3)c2cc1OC1CCOC1", 13.6),
    ("COc1cc(Nc2ncc3c(n2)-c2ccc(Cl)cc2C(c2c(F)cccc2OC)=NC3)ccc1C(=O)O + CC1OCC2(CCN(c3cnc(Sc4ccnc(N)c4Cl)c(N)n3)CC2)C1N", 15.5),
    ("Cn1nccc1Nc1nccc(-c2cc3c(s2)C(C)(C)N(CCN2CCOCC2)C3=O)n1 + CNCc1ccccc1-c1csc(C(C)Nc2nc(C)nc3cc(OC)c(OC)cc23)c1", 30.1),
    ("COc1cc(Nc2ncc3c(n2)-c2ccc(Cl)cc2C(c2c(F)cccc2OC)=NC3)ccc1C(=O)O + C=CC(=O)N1CCN(c2nc(OCC3CCCN3C)nc3c2CCN(c2cccc4cccc(C)c24)C3)CC1CC#N", 10.8),
]

Next:
Request: # input compound: CCN1CCN(Cc2ccc(Nc3ncc(F)c(-c4cc(F)c5nc(C)n(C(C)C)c5c4)n3)nc2)CC1 + CNCc1ccccc1-c1csc(C(C)Nc2nc(C)nc3cc(OC)c(OC)cc23)c1 ; wanted: its viability, T/C
Result: 22.3
